Provide the recorded IC50 for the entries that follow.
testedTarget: BV2561 (recombinant CoV S glycoprotein, BA.2.75) (SARS-CoV-2, UniProt P0DTC2 14-1273)
assayName: hACE2 receptor inhibition ELISA on coated rS; competitor hACE2-His

Record summary for 322.3 (antibody, V domains shown) VH: RVQLQQSGPELVKPGASVTISCKASGYIFTSDYIHWVKQRPGQGPEWIGWIYPGNINTKYNEKFKGKATLTADKSSSTAYMQLSSLTSEDSAVYFCARDDGNLYYYAMDYWGQGTSVTVSS VL: NIVLTQSPASLAVSLGQRATISCRASESVDSYGSSFMHWYQQKPGQPPKLLIYLASNLESGVPARFSGSGSRTDFTLTIDPVEADDAATYYCQQNNEDPRTFGGGTKLEIK : reported IC50 = > 5 µg/mL

Record summary for 425.6 (antibody, V domains shown) VH: VQLKQSGPSLVQPSQSLSITCTVSGFSLTSYGIHWVRQSPGKGLEWLGVIWRGGSTDYNAAFMSRLTITKDNSKSQVFFKMNSLQADDTAIYYCATHTEGDDVDYWGQGTSVTVSS VL: QIVLTQSPAIMSVSPGEKVTMTCSASSTMSFMYWYQQKPGSSPRLLIYDTSNLASGVPVRFSGSGSGTSYSLTISRVEAEDAATYYCQQWNTYPLTFGAGTKLELKR : reported IC50 = > 5 µg/mL

Record summary for 239.12 (antibody, V domains shown) VH: EVKLEESGPVLVKPSQSLSLTCTVTGYSITSDYAWNWIRQFPGNKLEWMGYISNSAGTSYNPSLKSRISITRDTSKNQFFLQLNSVTTEDTATYYCASGGWSSYYAMDYWGQGTSVTVSS VL: DIQMTQSPASLSASVGETVTITCGASENIYGALNWYQRKQGKSPQLLIYGATNLADGMSSRFSGSGSGRQYSLKISSLHPDDVATYYCQNVLSTPYTFGGGTKLEIKR : reported IC50 = > 5 µg/mL

Record summary for 35.13 (antibody, V domains shown) VH: QVQLQQSGAELGKPGASVKLSCRASGYTFTRYYIYWVKQRPGQGLEWIGEINPSNGDTHFNEKFKTKATLTVDKSSSSAHIHLTSLTSEDSAVYYCSIHAYSFDFWGQGTTLTVSS VL: EIQMTQSPSSMSASLGDRITITCQATQDIVKNLNWYQQKPGKPPSFLIYHATELAKGVPSRFSGSGSGSDYSLTISNLESEDFADYYCLQFYDFPFTFGAGTKLELKR : reported IC50 = 0.169 µg/mL

Reference source for all entries: patent US20250066456A1
